Reference for the values: the supplement of paper PMC10065799

Task for the reader: assign each of the following sequences its reported phosphorylation enrichment.
system_tested: Fyn (UniProt P06241)
Sequence (P06241 whole entry, looked up): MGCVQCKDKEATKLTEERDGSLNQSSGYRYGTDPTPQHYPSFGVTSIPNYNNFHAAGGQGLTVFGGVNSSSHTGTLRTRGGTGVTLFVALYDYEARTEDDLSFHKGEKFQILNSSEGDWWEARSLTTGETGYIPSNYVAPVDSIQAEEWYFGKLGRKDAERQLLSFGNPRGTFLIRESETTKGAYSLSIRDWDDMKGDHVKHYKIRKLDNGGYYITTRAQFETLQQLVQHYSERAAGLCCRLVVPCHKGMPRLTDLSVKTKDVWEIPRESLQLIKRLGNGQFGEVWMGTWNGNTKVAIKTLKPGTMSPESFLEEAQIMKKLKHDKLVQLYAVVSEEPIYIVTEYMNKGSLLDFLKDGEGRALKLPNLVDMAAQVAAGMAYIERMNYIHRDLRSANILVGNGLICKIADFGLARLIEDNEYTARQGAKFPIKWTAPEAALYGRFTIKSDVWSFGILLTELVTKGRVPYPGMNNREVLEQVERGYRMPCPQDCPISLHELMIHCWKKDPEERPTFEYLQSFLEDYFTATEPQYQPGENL
assay_details: phosphorylation enrichment, bacterial display (enrichment ratio); higher = better substrate or ligand; peptides without Tyr show the background;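 note: 11-residue human phosphosite peptides and single-mutation variants displayed on the E. coli surface, counted by deep sequencing, each peptide's frequency after selection divided by its frequency in the unselected input library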;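 note: frequency after pTyr selection over input frequency; kinase dosed for 20-30% of maximal phosphorylation in three min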
Enter the number alone.

What value of phosphorylation enrichment has been recorded for this entry: AKLKDYFIFNK [CCDC42_Y149_YF]
0.465

Which value of phosphorylation enrichment has been reported for DTKPAYQNLRQ [BOD1_Y82] in the records?
0.383

Bench note: what phosphorylation enrichment did RPSELYFSKIS [SMG1_Y2253_G2258S_YF] show?
1.4

I'd like to know its phosphorylation enrichment. The sequence in question is VEYAKYGSLQG [RET_Y809_R813Q]
1.44

Returns the measured phosphorylation enrichment for the input sequence. Input: EQQRAYLEGTC [HLA-C_Y183_L180Q]
0.518

Which value of phosphorylation enrichment has been reported for DSMQSYDLDYP [UNC13B_Y243] in the records?
0.466

What measured phosphorylation enrichment goes with TQKLAYVELQQ [CENPF_Y700_M701V] ?
0.445

What value of phosphorylation enrichment has been recorded for this entry: SDQRRYSLIDR [CLIP2_Y972]
0.394

Data request, read-out phosphorylation enrichment, for NTGDDYDLFGG [PTPN11_Y63_Y62D_YF]
0.722

Item ITLPIYTKESE [ANK2_Y1455] has what recorded phosphorylation enrichment?
0.88

So what does the record say about phosphorylation enrichment for ISIFYYAKGQP [MPZ_Y82_H81Y] ?
0.52

Could you tell me which phosphorylation enrichment is on file for FISVGYVDDTL [HLA-B_Y51_Q56L] ?
0.486

Which phosphorylation enrichment value is on record for PSAELYSFALP [PDGFRB_Y716_N718Y_YF] ?
7.74

# phosphorylation enrichment lookup, item AKQVGCENAGT [PC_Y304_Y304C]
0.487
